These entries and their values trace back to patent US20210246204A1.

Target: T1, histidine-tagged human Siglec-7 (NovoProtein) (human, UniProt Q9Y286 19-353)
T1 construct: Bought protein; also called recombinant human Siglec-7; recombinant Siglec-7; not shown: histidine tag
T1 sequence (Q9Y286 19-353 limits assumed): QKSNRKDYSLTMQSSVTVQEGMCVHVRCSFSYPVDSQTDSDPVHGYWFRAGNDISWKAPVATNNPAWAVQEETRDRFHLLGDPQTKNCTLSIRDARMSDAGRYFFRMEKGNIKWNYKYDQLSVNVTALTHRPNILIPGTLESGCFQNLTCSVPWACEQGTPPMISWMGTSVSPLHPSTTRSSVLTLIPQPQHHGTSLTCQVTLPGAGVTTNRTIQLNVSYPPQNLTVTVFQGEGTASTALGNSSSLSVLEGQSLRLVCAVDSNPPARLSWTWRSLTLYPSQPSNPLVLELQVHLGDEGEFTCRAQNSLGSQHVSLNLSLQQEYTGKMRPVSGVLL
Assay: BLI, antibody captured
readout name: fold improvement over S7AB-H8 (fold)
Give bare numbers, in fold.

{"columns": ["binder", "fold improvement over S7AB-H8 [fold]"],
 "data": [
  ["S7AB-H8.35 (antibody, V domains shown) VH: QVQLVQSGAEVKKPGASVKVSCKASGYAFTEAWMNWVRQAPGQGLEWIGRIFPGYGHTNYAQKFQGRATLTEDTSTSTAYMELSSLRSEDTAVYYCARDYSDYYFDYWGQGTLVTVSS VL: DIQMTQSPSSLSASVGDRVTITCRGSQDINTYLNWYQQKPGKAPKLLIYYTSRLHSGVPSRFSGSGSGTDYTLTISSLQPEDFATYYCQQGGTLPWTFGQGTKLEIK", 1.7],
  ["S7AB-H8.36 (antibody, V domains shown) VH: QVQLVQSGAEVKKPGASVKVSCKASGYAFTETWMNWVRQAPGQGLEWIGRIFPGLGHTNYAQKFQGRATLTEDTSTSTAYMELSSLRSEDTAVYYCARDYSDYYFDYWGQGTLVTVSS VL: DIQMTQSPSSLSASVGDRVTITCRGSQDINTYLNWYQQKPGKAPKLLIYYTSRLHSGVPSRFSGSGSGTDYTLTISSLQPEDFATYYCQQGNVLPWTFGQGTKLEIK", 1.7]
]}

For each of the binders below, note its fold improvement over S7AB-H8.
1. S7AB-H8.12 (antibody, V domains shown) VH: QVQLVQSGAEVKKPGASVKVSCKASGYAFTMAWMNWVRQAPGQGLEWIGRIFPGYGHTNYAQKFQGRATLTEDTSTSTAYMELSSLRSEDTAVYYCARDYSDYYFDYWGQGTLVTVSS VL: DIQMTQSPSSLSASVGDRVTITCRGSQDINTYLNWYQQKPGKAPKLLIYYTSRLHSGVPSRFSGSGSGTDYTLTISSLQPEDFATYYCQGGNTLPWTFGQGTKLEIK
2. S7AB-H8.32 (antibody, V domains shown) VH: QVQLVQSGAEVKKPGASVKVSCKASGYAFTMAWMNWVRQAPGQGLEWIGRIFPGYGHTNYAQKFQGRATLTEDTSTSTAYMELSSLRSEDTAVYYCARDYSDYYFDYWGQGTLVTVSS VL: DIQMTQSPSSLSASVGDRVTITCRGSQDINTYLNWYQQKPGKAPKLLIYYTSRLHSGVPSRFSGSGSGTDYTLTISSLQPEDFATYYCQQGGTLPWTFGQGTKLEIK

RESULT:
[0.02, 2.9]
